JAK2 (recombinant purified GST-tagged catalytic domain) (Homo sapiens (Human)): reported IC50 for various compounds.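 Further: biochemical JAK kinase assay with HTRF detection.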
Sequence (O60674 849-1124): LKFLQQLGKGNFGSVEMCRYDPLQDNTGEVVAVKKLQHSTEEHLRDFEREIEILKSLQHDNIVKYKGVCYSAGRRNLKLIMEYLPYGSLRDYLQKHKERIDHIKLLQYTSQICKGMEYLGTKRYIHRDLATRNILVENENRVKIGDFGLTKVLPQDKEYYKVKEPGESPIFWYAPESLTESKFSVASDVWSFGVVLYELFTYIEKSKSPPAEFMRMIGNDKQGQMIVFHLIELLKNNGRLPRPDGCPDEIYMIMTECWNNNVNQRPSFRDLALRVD
The reply should be a number in nM, with the unit left off.

Use the examples below as a reference point.
CS(=O)(=O)c1ccc(Nc2nn(C3CCCCC3C#N)cc2C(N)=O)cc1 (stereo not drawn) : 9
N#C[C@H]1C[C@@H](N2CCC2)CC[C@@H]1n1cc(C(N)=O)c(Nc2ccc(OC(F)F)nc2)n1 (single isomer, unassigned) : 87
CC1(C)C[N+](C)([C@H]2CC[C@H](n3cc(C(N)=O)c(Nc4ccc(Cl)cc4)n3)[C@@H](C#N)C2)C1 : 34
N#C[C@@H]1CCC2(C[C@H]1n1cc(C(N)=O)c(Nc3ccccc3)n1)OCCO2 (single isomer, unassigned) [Example 45-3] : 308
CS(=O)(=O)N[C@H]1CC[C@H](n2cc(C(N)=O)c(Nc3ccc(F)cc3)n2)[C@@H](C#N)C1 (mixture of isomers) : 14

Would you kindly look at the next entry?
What IC50 appears in the records for this compound with JAK2 (recombinant purified GST-tagged catalytic domain) (Homo sapiens (Human))? COCCN[C@H]1CCC(n2cc(C(N)=O)c(Nc3ccc(S(=O)(=O)C(F)(F)F)cc3)n2)[C@@H](C#N)C1 (stereo partly drawn)
35

Cited source: patent US8962608B2
